Assay: Pharmacokinetics of intravenous docetaxel with oral LC478 in rats
Assay type: in vivo, Sprague–Dawley rats
Conditions: male, Sprague-Dawley, rat, plasma, iv, 20 mg/kg, rats, docetaxel 20 mg/kg intravenous, with 100 mg/kg oral LC478
Protocol: For the intravenous study, rats were divided into three groups according to LC478 doses (0, 30, and 100 mg/kg LC478, respectively). […] To prevent blood clotting, 0.3 mL of 0.9% NaCl-injectable solution containing heparin (20 U/mL) was flushed into each cannula immediately after each blood sampling. […]

smilesData: CC(=O)O[C@@]12CO[C@@H]1C[C@H](O)[C@@]1(C)C(=O)[C@H](O)C3=C(C)[C@@H](OC(=O)[C@H](O)[C@@H](NC(=O)OC(C)(C)C)c4ccccc4)C[C@@](O)([C@@H](OC(=O)c4ccccc4)[C@H]21)C3(C)C
CL renal [mL/min/kg]: 0.678

* * *

assay: Pharmacokinetics of intravenous docetaxel with oral LC478 in rats; type: in vivo, Sprague–Dawley rats; conditions: male, Sprague-Dawley, rat, plasma, iv, 20 mg/kg, rats, docetaxel 20 mg/kg intravenous, with 100 mg/kg oral LC478; read-out: Vss
measuredMetric: Vd (L/kg)

smilesData: CC(=O)O[C@@]12CO[C@@H]1C[C@H](O)[C@@]1(C)C(=O)[C@H](O)C3=C(C)[C@@H](OC(=O)[C@H](O)[C@@H](NC(=O)OC(C)(C)C)c4ccccc4)C[C@@](O)([C@@H](OC(=O)c4ccccc4)[C@H]21)C3(C)C
readoutUnit: L/kg
quantitativeReadout: 4.91

* * *

assay: Pharmacokinetics of intravenous docetaxel with oral LC478 in rats; type: in vivo, Sprague–Dawley rats; settings: male, Sprague-Dawley, rat, plasma, iv, 20 mg/kg, rats, docetaxel 20 mg/kg intravenous, with 0 mg/kg LC478

smilesData: CC(=O)O[C@@]12CO[C@@H]1C[C@H](O)[C@@]1(C)C(=O)[C@H](O)C3=C(C)[C@@H](OC(=O)[C@H](O)[C@@H](NC(=O)OC(C)(C)C)c4ccccc4)C[C@@](O)([C@@H](OC(=O)c4ccccc4)[C@H]21)C3(C)C
AUC(0-t) (ng·h/mL): 4220

* * *

system: P-gp; assay: in vitro; details: rat, pH 7.4

smilesData: CC(=O)O[C@@]12CO[C@@H]1C[C@H](O)[C@@]1(C)C(=O)[C@H](O)C3=C(C)[C@@H](OC(=O)[C@H](O)[C@@H](NC(=O)OC(C)(C)C)c4ccccc4)C[C@@](O)([C@@H](OC(=O)c4ccccc4)[C@H]21)C3(C)C
Papp B→A at 3 h, 1 µM [×10⁻⁶ cm/s]: 1.08

* * *

assay: in vivo; settings: male, Sprague-Dawley, rat, in vivo, po, 20 mg/kg, CL/F
measuredMetric: CL/F

smilesData: CC(=O)O[C@@]12CO[C@@H]1C[C@H](O)[C@@]1(C)C(=O)[C@H](O)C3=C(C)[C@@H](OC(=O)[C@H](O)[C@@H](NC(=O)OC(C)(C)C)c4ccccc4)C[C@@](O)([C@@H](OC(=O)c4ccccc4)[C@H]21)C3(C)C
measuredMetric: CL/F
result: 182 L/h/kg

These measurements were taken from paper PMC6471177.
